The origin of these recorded values is patent US20260325685A1.

Each entry below carries its recorded pKd.
measuredOn: human CA-XII (Homo sapiens, UniProt O43570)
Construct: purchased Creative BioMart CA12-261H
Sequence (O43570 25-354): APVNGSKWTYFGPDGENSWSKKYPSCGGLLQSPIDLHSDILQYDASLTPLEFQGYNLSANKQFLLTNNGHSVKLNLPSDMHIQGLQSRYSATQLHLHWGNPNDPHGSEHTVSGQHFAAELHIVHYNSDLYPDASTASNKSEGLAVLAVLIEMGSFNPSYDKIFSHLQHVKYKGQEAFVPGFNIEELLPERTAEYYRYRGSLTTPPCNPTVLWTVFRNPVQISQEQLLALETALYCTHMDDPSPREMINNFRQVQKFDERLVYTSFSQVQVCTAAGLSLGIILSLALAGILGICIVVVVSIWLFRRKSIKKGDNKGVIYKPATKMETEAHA
assayOverview: Surface Plasmon Resonance (SPR) binding kinetics to recombinant human CA-XII (Biacore 8K, single-cycle kinetics, 1:1 binding model)
conditionsUsed: Chelated Metal: None, 25° C., pH 7.4, read-out: CAXII KD
pKd: −log10 of the molar value.
measuredProperty: pKd

[[record]]
compound = "CC(CCCC(=O)N1CCC(C(N)=O)(C(=O)NCC(=O)N2CCN(C(=O)CN3CCN(CC(=O)O)CCN(CC(=O)O)CCN(CC(=O)O)CC3)C[C@H]2C(=O)NCCn2cc(C34CC(c5cn6nc(S(N)(=O)=O)sc6n5)(C3)C4)nn2)CC1)(c1ccc(O)cc1)c1ccc(O)cc1"
assayresult = "8.00 to 8.60"

[[record]]
compound = "CC(CCC(=O)N[C@@H](CC(=O)N[C@@H](CC(=O)N1CCN(C(=O)CCC(CCC(=O)N2CCN(C(=O)C[C@H](NC(=O)C[C@H](NC(=O)CCC(C)(c3ccc(O)cc3)c3ccc(O)cc3)C(=O)O)C(=O)O)[C@H](C(=O)NCCn3cc(C45CC(C(=O)Nc6nnc(S(N)(=O)=O)s6)(C4)C5)nn3)C2)NC(=O)CN2CCN(CC(=O)O)CCN(CC(=O)O)CCN(CC(=O)O)CC2)C[C@H]1C(=O)NCCn1cc(C23CC(C(=O)Nc4nnc(S(N)(=O)=O)s4)(C2)C3)nn1)C(=O)O)C(=O)O)(c1ccc(O)cc1)c1ccc(O)cc1 (stereo partly drawn)"
assayresult = "> 9.00"

[[record]]
compound = "CC(CCC(=O)N[C@@H](CC(=O)N[C@@H](CC(=O)N1CCN(C(=S)Nc2ccc3c(c2)OCCN(Cc2cccc(C(=O)O)n2)CCOCCOCCN(Cc2cccc(C(=O)O)n2)CCO3)C[C@H]1C(=O)NCCn1cc(C23CC(C(=O)Nc4nnc(S(N)(=O)=O)s4)(C2)C3)nn1)C(=O)O)C(=O)O)(c1ccc(O)cc1)c1ccc(O)cc1"
assayresult = "8.00 to 8.60"


###

measuredOn: human CA-XII (Homo sapiens, UniProt O43570)
Construct: purchased Creative BioMart CA12-261H
assayOverview: Surface Plasmon Resonance (SPR) binding kinetics to recombinant human CA-XII (Biacore 8K, single-cycle kinetics, 1:1 binding model)
conditionsUsed: Chelated Metal: Lu-175, 25° C., pH 7.4, read-out: CAXII KD
pKd: −log10 of the molar value.
measuredProperty: pKd

[[record]]
smilesdata = "NS(=O)(=O)c1nnc(NC(=O)C23CCC(c4cn(CCNC(=O)[C@@H]5CN(C(=O)CN6CCN(CC(=O)O)CCN(CC(=O)O)CCN(CC(=O)O)CC6)CCN5C(=O)CC[C@H](NC(=O)C[C@H](NC(=O)Cc5[nH]nc6ccc(O)cc56)C(=O)O)C(=O)O)nn4)(CC2)CC3)s1.[Lu+3]"
assayresult = "> 9.00"

[[record]]
smilesdata = "NS(=O)(=O)c1nnc(NC(=O)C23CC(c4cn(CCNC(=O)[C@@H]5CN(C(=O)CN6CCN(CC(=O)O)CCN(CC(=O)O)CCN(CC(=O)O)CC6)CCN5C(=O)C[C@H](NC(=O)C[C@H](NC(=O)CCCc5ccc(I)cc5)C(=O)O)C(=O)O)nn4)(C2)C3)s1.[Lu+3]"
assayresult = "8.00 to 8.60"

[[record]]
smilesdata = "NS(=O)(=O)c1nnc(NC(=O)C23CC(c4cn(CCNC(=O)[C@@H]5CN(C(=O)CN6CCN(CC(=O)O)CCN(CC(=O)O)CCN(CC(=O)O)CC6)CCN5C(=O)C[C@H](Nc5ncc(C(=O)NCc6ccc(C(F)F)cc6)cn5)C(=O)O)nn4)(C2)C3)s1.[Lu+3]"
assayresult = "< 8.00"

[[record]]
smilesdata = "NS(=O)(=O)c1nnc(NC(=O)C23CC(c4cn(CCNC(=O)[C@H]5CN(C(=O)CN6CCN(CC(=O)O)CCN(CC(=O)O)CCN(CC(=O)O)CC6)CCN5C(=O)CC[C@H](NC(=O)Cc5n[nH]c6ccccc56)C(=O)O)nn4)(C2)C3)s1.[Lu+3]"
assayresult = "8.00 to 8.60"

[[record]]
smilesdata = "CC(CCC(=O)N[C@@H](CC(=O)N[C@@H](CC(=O)NC1(CCCCn2cc(CCCC(=O)Nc3nnc(S(N)(=O)=O)s3)nn2)CCN(C(=O)OCCOCCNC(=O)CN2CCN(CC(=O)O)CCN(CC(=O)O)CCN(CC(=O)O)CC2)CC1)C(=O)O)C(=O)O)(c1ccc(O)cc1)c1ccc(O)cc1.[Lu+3]"
assayresult = "8.00 to 8.60"

[[record]]
smilesdata = "CC1(c2ccc(C(=O)N[C@@H](CC(=O)N[C@@H](CC(=O)N3CCN(C(=O)CN4CCN(CC(=O)O)CCN(CC(=O)O)CCN(CC(=O)O)CC4)C[C@H]3C(=O)NCCn3cc(C45CC(C(=O)Nc6nnc(S(N)(=O)=O)s6)(C4)C5)nn3)C(=O)O)C(=O)O)cc2)CC1.[Lu+3]"
assayresult = "8.00 to 8.60"

[[record]]
smilesdata = "CC(C)(C)c1ccc(C(=O)N[C@@H](CC(=O)N[C@@H](CC(=O)N2CCN(C(=O)CN3CCN(CC(=O)O)CCN(CC(=O)O)CCN(CC(=O)O)CC3)C[C@H]2C(=O)NCCn2cc(C34CC(C(=O)Nc5nnc(S(N)(=O)=O)s5)(C3)C4)nn2)C(=O)O)C(=O)O)cc1.[Lu+3]"
assayresult = "8.00 to 8.60"

